# Test system: SK-MEL-2 melanoma
# TEST DETAILS: NCI tumour cell line growth inhibition, 48 h
QUANTITY MEASURED: TGI

COc1ccc(/C=C2/C(=O)N(C(=O)c3ccccc3O)N=C2C)cc1    > 100 µM

Query: Under SK-MEL-2 melanoma, report TGI for `COc1ccc(-c2oc3cc(OC)c(OC)c(O)c3c(=O)c2OC)cc1`
Response: > 100 µM

Query: Quote SK-MEL-2 melanoma TGI for entry `Nc1ccc(-c2nc3ccc(F)cc3s2)cc1Cl` .
Response: > 100 µM

Query: Please respond with reported TGI (system SK-MEL-2 melanoma) for `C[C@H]1C2Cc3cc(O)ccc3[C@@]1(C)CCN2CCc1ccc(N)cc1` .
Response: > 100 µM

Query: Under SK-MEL-2 melanoma, report TGI for `Cc1nc2ccc(S(=O)(=O)NS(=O)(=O)c3ccc(-c4ccccc4)cc3)cc2c(=O)n1NS(=O)(=O)c1ccc(-c2ccccc2)cc1`
Response: > 100 µM

Query: Supply TGI measured with SK-MEL-2 melanoma for `O=Cc1ccc(OC[C@H]2COC(=O)N2)cc1` .
Response: > 100 µM

Query: Answer with TGI of O=C(NN1C(=O)C(Cl)C1c1cccc([N+](=O)[O-])c1)c1ccccc1O (stereo not drawn) measured for SK-MEL-2 melanoma.
Response: > 100 µM

Query: GET TGI where system = SK-MEL-2 melanoma and item = `O=C1CCC[C@H]2O[C@@H](COC(=O)c3ccccc3)C[C@H]2O1`
Response: > 100 µM
